- TESTED_ON: UniProt:Q03111
- Sequence (Q03111 whole entry): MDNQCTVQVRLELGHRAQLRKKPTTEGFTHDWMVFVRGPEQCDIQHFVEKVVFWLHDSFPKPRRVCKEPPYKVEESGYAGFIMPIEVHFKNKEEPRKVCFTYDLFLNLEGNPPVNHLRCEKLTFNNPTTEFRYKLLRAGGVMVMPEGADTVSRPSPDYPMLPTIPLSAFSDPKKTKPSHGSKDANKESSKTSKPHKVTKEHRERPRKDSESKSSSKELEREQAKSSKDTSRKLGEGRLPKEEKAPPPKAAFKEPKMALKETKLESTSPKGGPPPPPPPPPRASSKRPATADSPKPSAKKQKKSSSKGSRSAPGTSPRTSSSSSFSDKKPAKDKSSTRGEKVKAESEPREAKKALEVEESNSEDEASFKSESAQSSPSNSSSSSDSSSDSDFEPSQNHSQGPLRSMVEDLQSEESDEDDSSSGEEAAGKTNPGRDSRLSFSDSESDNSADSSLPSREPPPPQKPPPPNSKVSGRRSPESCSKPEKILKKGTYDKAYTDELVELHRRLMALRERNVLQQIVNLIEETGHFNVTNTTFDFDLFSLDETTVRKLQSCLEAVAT
- RUN_CONDITIONS: dose 12.5 µM
- Description: Binding affinity to C-terminal 6xHis-tagged ENL YEATS domain (1 to 148 residues) (unknown origin) expressed in Escherichia coli BL21(DE3) cells assessed as thermal stability by measuring change in melting temperature at 12.5 uM by SYPRO dye-based thermal shift assay
ATTRIBUTE_MEASURED: ΔTm (°C)
Your answer is read as °C, so omit the unit and give the number.

Reported ΔTm for C[C@H]1CCCN1Cc1nc2cc(NC(=O)c3ccc4c(c3)c3ccccc3c(=O)n4C)ccc2[nH]1 was 3.3

get_value(item= Cc1noc2cc(C(=O)Nc3ccc4[nH]c(CN5CCC[C@@H]5C)nc4c3)ccc12 , readout=ΔTm) returns 2.8

C[C@H]1CCCN1Cc1nc2cc(NC(=O)c3ccc4c(cnn4C)c3)ccc2[nH]1 yielded ΔTm of 2.2

C[C@H]1CCCN1Cc1nc2cc(NC(=O)c3ccc4c(cnn4CCN4CCOCC4)c3)ccc2[nH]1 has a reported ΔTm of 1.3
